Data provenance is the nanobody polyreactivity screen of Harvey et al. (2022).

Assay protocol: yeast display, Sf9 membrane polyspecificity reagent, FACS + sequencing; frameworks hold sequencing errors
Metric: polyreactivity (PSR sort gate)

INSERT INTO assay_data (sequence_content, value_reported) VALUES
  ('QVQLVESGVGLVQAGGSLRLSCAASGFIIRTYAMGWYIQAPGKERELVATITGDGSTNYADSVKGRFTISRDNAKNTVYLQMNSLKPEDTAVYYCSRDDRLAVDYWGQGTQVTVSS', 'low polyreactivity'),
  ('QVQLVESGGRLVQAGGSLRLSCAASGSIINVNTMGWYRQAPGKERELVAAISSGGRTYYADSVKGRFTISRDNAKNTVYLQMNSLKPEDTAVYYCNTVLGVYDYDYWGQGTQVTVSS', 'low polyreactivity'),
  ('QVQLVESGGGLVQAGGSLRLSCAASGSTFGSNAMGWYRQAPGKERELVAAITGGDVSTYYADSVKGRFTISRDNAKNTVYLQMNSLKPEDTAVYYCNAEYARPAMDYWGQGTQVTVSS', 'low polyreactivity'),
  ('QVQLVESGGGLVQAGGSLRLSCAASGITFTIYAMGCNRQAPGKERELVAAITWTSDITHYADSVKGRVTISRDNAKNTDYLQMNSLKPEDTAVYYCGATTWDEYDYWGQGTQVTVSW', 'high polyreactivity');

Now, please, on to the next sequence.
Supply polyreactivity (PSR sort gate) value. Item: QVQLVESGGGLVQAGGSLRLSCAASGRTFRRNAMGWYRQAPGKERELVAAINSGGSTYYADSVKGRFTISRDNAKNTDYLQMNSLKPEDTAVYYCAASGSKYVQSYSRYDYWGQGTQVTVSS high polyreactivity
